Molar extinction coefficient ε values for the compounds below.
- experimentNotes: Electronic absorption spectra in MeOH
- Assay type: physicochemical
- condition: in CH3OH
measuredAttribute: Molar extinction coefficient ε

- compound: "C[N+]1=c2cc3c(cc2C(C)(C)CC1)=C(c1ccc(C(=S)N2CCCCC2)s1)c1cc2c4c(c1[Se]3)CCCN4CCC2.[Cl-] [Compd 7]"
  observed: "92000 M⁻¹ cm⁻¹"
- compound: "CN1CCC(C)(C)c2cc3c(cc21)[Se]c1cc2c(cc1=C3c1ccc(C(=S)N3CCCCC3)s1)C(C)(C)CC[N+]=2C.[Cl-] [Compd 9]"
  observed: "93000 M⁻¹ cm⁻¹"
- compound: "C[N+]1=c2cc3c(cc2C(C)(C)CC1)=C(c1ccc(C(=O)N2CCCCC2)s1)c1cc2c4c(c1[Se]3)CCCN4CCC2.[Cl-] [Compd 8]"
  observed: "110000 M⁻¹ cm⁻¹"
- compound: "CN1CCC(C)(C)c2cc3c(cc21)[Se]c1cc2c(cc1=C3c1ccc(C(=O)N3CCCCC3)s1)C(C)(C)CC[N+]=2C.[Cl-] [Compd 10]"
  observed: "105000 M⁻¹ cm⁻¹"

* * *

- experimentNotes: Electronic absorption spectra in MeOH
- Format: physicochemical
- condition: in CH3OH
Absorption maximum λmax values for the compounds below.

- compound: "CN1CCC(C)(C)c2cc3c(cc21)[Se]c1cc2c(cc1=C3c1ccc(C(=S)N3CCCCC3)s1)C(C)(C)CC[N+]=2C.[Cl-] [Compd 9]"
  Absorption maximum λmax: "614 nm"
- compound: "C[N+]1=c2cc3c(cc2C(C)(C)CC1)=C(c1ccc(C(=O)N2CCCCC2)s1)c1cc2c4c(c1[Se]3)CCCN4CCC2.[Cl-] [Compd 8]"
  Absorption maximum λmax: "620 nm"
- compound: "CN1CCC(C)(C)c2cc3c(cc21)[Se]c1cc2c(cc1=C3c1ccc(C(=O)N3CCCCC3)s1)C(C)(C)CC[N+]=2C.[Cl-] [Compd 10]"
  Absorption maximum λmax: "614 nm"
- compound: "C[N+]1=c2cc3c(cc2C(C)(C)CC1)=C(c1ccc(C(=S)N2CCCCC2)s1)c1cc2c4c(c1[Se]3)CCCN4CCC2.[Cl-] [Compd 7]"
  Absorption maximum λmax: "620 nm"

* * *

- System: CD3+ cells of SEB-stimulated PBMCs
- Type: cell-based, human

- givenSmiles: "CN1CCC(C)(C)c2cc3c(-c4ccc(C(=O)N5CCCCC5)s4)c4ccc(=[N+](C)C)cc-4[se]c3cc21.[Cl-]"
  % survival CD3+, %: 26.6
- givenSmiles: "S=C(c1ccc(C2=c3cc4c5c(c3[Se]c3c2cc2c6c3CCCN6CCC2)CCC[N+]=5CCC4)s1)N1CCCCC1.[Cl-]"
  % survival CD3+, %: 12.1
- givenSmiles: "C[N+]1=c2cc3c(cc2C(C)(C)CC1)=C(c1ccc(C(=S)N2CCCCC2)s1)c1cc2c4c(c1[Se]3)CCCN4CCC2.[Cl-]"
  % survival CD3+, %: 5.7
- givenSmiles: "CN1CCC(C)(C)c2cc3c(cc21)[Se]c1cc2c(cc1=C3c1ccc(C(=O)N3CCCCC3)s1)C(C)(C)CC[N+]=2C.[Cl-]"
  % survival CD3+, %: 22.2
- givenSmiles: "CN1CCC(C)(C)c2cc3c(-c4ccc(C(=S)N5CCCCC5)s4)c4ccc(=[N+](C)C)cc-4[se]c3cc21.[Cl-]"
  % survival CD3+, %: 21.0
- givenSmiles: "CN1CCC(C)(C)c2cc3c(cc21)[Se]c1cc2c(cc1=C3c1ccc(C(=S)N3CCCCC3)s1)C(C)(C)CC[N+]=2C.[Cl-]"
  % survival CD3+, %: 9.2
- givenSmiles: "O=C(c1ccc(C2=c3cc4c5c(c3[Se]c3c2cc2c6c3CCCN6CCC2)CCC[N+]=5CCC4)s1)N1CCCCC1.[Cl-]"
  % survival CD3+, %: 65
- givenSmiles: "C[N+]1=c2cc3c(cc2C(C)(C)CC1)=C(c1ccc(C(=O)N2CCCCC2)s1)c1cc2c4c(c1[Se]3)CCCN4CCC2.[Cl-]"
  % survival CD3+, %: 10.3
